Hello, the source for this data is ChEMBL document CHEMBL1131993, in case you need it.

Target: Muscarinic acetylcholine receptor M3 (Homo sapiens)
Assay: Ability to displace [3H]N-methylscopolamine binding to M3 human recombinant muscarinic receptor in CHO cells at concentration 10 uM
Type: cell-based
# inhibition annotations
Only the number, expressed in %, is required.

Completed entries (count: 2):
compound: C(=C1\CN2CCC1CC2)/c1cc(-c2ccccc2)no1
readout.units: %
inhibition: 48

compound: COc1ccc(COc2ccc(-c3cc(/C=C4\CN5CCC4C5)on3)cc2OCc2ccc(OC)cc2)cc1 (stereo not drawn)
readout.units: %
inhibition: 98

# evaluate next
I have this compound here, "Oc1ccc(-c2cc(/C=C3\CN4CCC3CC4)on2)cc1" , and I need its recorded inhibition.
0
